Give measured target mRNA knockdown for each item. Keep answers brief.
conditionSet: siRNA; further: test system not given here
HELM strings list units from the 5' end as sugar, base in round brackets, then linkage (d deoxyribose, r ribose, m 2'-O-methyl, p phosphodiester). Strings are as the collection lists them, not checked against the first reports. ss, as = sense and antisense strand; [lna] = locked nucleic acid (LNA); [una] = unlocked nucleic acid
Your reply should be a number followed by the unit it is expressed in.

input: Param item = `RNA1{r(G)p.r(U)p.r(A)p.r(U)p.r(G)p.r(A)p.r(C)p.r(C)p.r(G)p.r(A)p.r(C)p.r(U)p.r(A)p.r(C)p.r(G)p.r(C)p.r(G)p.r(U)p.r(A)p.r(T)p.r(T)}|RNA2{r(U)p.r(U)p.r(C)p.r(A)p.r(G)p.r(U)p.r(G)p.r(U)p.r(G)p.r(A)p.r(U)p.r(G)p.[una](A)p.r(C)p.r(A)p.r(C)p.r(U)p.r(U)p.r(G)p.r(T)p.r(T)}$$$RNA1{StrandType:ss}|RNA2{StrandType:as}$` ; retrieve measured target mRNA knockdown.
output: 74%

input: Param item = `RNA1{r(C)p.r(U)p.r(U)p.r(A)p.r(C)p.r(G)p.r(C)p.r(U)p.r(G)p.r(A)p.r(G)p.r(U)p.r(A)p.r(C)p.r(U)p.r(U)p.r(C)p.r(G)p.r(A)p.d(T)p.d(T)}|RNA2{r(U)p.r(C)p.r(G)p.r(A)p.r(A)p.r(G)p.r(U)p.r(A)p.r(C)p.[lna](T)p.r(C)p.r(A)p.r(G)p.r(C)p.r(G)p.r(U)p.r(A)p.r(A)p.r(G)p.[lna](T)p.[lna](T)}$$$RNA1{StrandType:ss}|RNA2{StrandType:as}$` ; retrieve measured target mRNA knockdown.
output: 52%

input: Param item = `RNA1{m(A)p.m(A)p.m(G)p.m(G)p.m(A)p.m(G)p.m(A)p.m(U)p.m(C)p.m(A)p.m(A)p.m(C)p.m(A)p.m(U)p.m(U)p.m(U)p.m(U)p.m(C)p.m(A)p.r(T)p.r(T)}|RNA2{r(U)p.r(G)p.r(A)p.r(A)p.r(A)p.r(A)p.r(U)p.r(G)p.r(U)p.r(U)p.r(G)p.r(A)p.r(U)p.r(C)p.r(U)p.r(C)p.r(C)p.m(U)p.m(U)p.r(T)p.r(T)}$$$RNA1{StrandType:ss}|RNA2{StrandType:as}$` ; retrieve measured target mRNA knockdown.
output: 77%
